# assayed-system: Adenosine receptor A1 (Mus musculus, UniProt Q60612)
# Sequence (Q60612 whole entry): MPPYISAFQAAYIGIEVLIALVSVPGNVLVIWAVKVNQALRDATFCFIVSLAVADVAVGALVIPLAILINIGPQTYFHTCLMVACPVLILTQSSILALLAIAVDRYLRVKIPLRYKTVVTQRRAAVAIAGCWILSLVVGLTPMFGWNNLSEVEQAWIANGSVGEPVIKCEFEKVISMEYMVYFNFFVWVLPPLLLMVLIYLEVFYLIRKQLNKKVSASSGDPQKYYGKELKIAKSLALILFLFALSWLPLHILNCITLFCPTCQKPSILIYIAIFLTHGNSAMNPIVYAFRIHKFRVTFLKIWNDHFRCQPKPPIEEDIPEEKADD
pKi: −log10 of the molar value.
property-measured: pKi

# compound, measured
measured = [
    ("O=C(/C=C/c1c(-c2ccccc2)nn2ccccc12)N1CCCC[C@@H]1CCO [FK453]", 9.26),
]

----------
Here the recorded Ki is given for each entry.
# assayed-system: Adenosine receptor A1 (Rattus norvegicus)
# Sequence (P25099 whole entry): as the sequence (Q60612 whole entry) above, with E151V, A155D, I157R, E316D, I319L, D325E counted along it
# experimental-protocol: Binding affinity to rat adenosine A1 receptor

# molecule, assayed-system, Ki, nM
rows = [
    ("OC1CCC(Nc2nc(-c3ccccc3)nc3[nH]ccc23)CC1 (configuration not stated) [DERENOFYLLINE]", "Adenosine receptor A1 (Rattus norvegicus)", 2.51),
    ("CCCn1c(=O)c2[nH]c(C34CCC(CCC(=O)O)(CC3)CC4)nc2n(CCC)c1=O [TONAPOFYLLINE]", "Adenosine receptor A1 (Rattus norvegicus)", 1.3),
]

----------
# assayed-system: Adenosine receptor A2b (Homo sapiens)
# Sequence (whole entry): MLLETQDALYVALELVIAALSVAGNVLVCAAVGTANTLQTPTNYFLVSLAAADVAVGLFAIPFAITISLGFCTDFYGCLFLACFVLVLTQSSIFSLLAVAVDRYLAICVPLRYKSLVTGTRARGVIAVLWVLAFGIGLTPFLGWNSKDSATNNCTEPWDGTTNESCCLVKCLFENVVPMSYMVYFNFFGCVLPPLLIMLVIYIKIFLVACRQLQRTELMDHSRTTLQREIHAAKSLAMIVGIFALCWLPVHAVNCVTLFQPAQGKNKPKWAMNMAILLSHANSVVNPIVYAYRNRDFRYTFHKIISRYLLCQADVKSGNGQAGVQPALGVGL
# experimental-protocol: Displacement of [3H]PSB-603 from human adenosine A2B receptor expressed in CHO cells at 1 uM
# Format: cell-based

# smiles-input, inhibition
records = [
    ("CS(=O)(=O)c1ccc(C(=O)c2sc(NC(=O)c3ccccc3)nc2-c2ccccc2)cc1", "< 30%"),
    ("CNc1nc(-c2ccccc2)c(C(=O)c2ccc(OC)cc2)s1", "< 30%"),
    ("O=C(Nc1nc(-c2ccccc2)c(C(=O)c2ccc(Cl)cc2)s1)c1ccco1", "< 30%"),
    ("CNc1nc(-c2ccccc2)c(C(=O)c2ccc(Cl)cc2)s1", "< 30%"),
    ("COc1ccc(C(=O)c2sc(Nc3ccccc3)nc2-c2ccccc2)cc1", "39%"),
    ("CS(=O)(=O)c1ccc(C(=O)c2sc(Nc3ccccc3)nc2-c2ccccc2)cc1", "< 30%"),
]

----------
# assayed-system: Adenosine receptor A3 (Homo sapiens, UniProt P0DMS8)
# Sequence (P0DMS8 whole entry): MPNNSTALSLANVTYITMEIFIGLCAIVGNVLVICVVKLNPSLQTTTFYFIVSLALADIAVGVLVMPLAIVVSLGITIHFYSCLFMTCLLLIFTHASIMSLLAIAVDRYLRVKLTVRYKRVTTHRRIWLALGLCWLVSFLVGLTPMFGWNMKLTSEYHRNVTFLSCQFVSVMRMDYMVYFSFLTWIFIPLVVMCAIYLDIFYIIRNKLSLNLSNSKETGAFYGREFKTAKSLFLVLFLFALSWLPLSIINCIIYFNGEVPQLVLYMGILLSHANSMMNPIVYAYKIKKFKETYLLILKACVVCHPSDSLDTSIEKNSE
# experimental-protocol: biochemical
# Description: Displacement of [3H]PSB-11 from human adenosine A3 receptor expressed in CHO cells
pKi: −log10 of the molar value.
Tag: yes (1) if measured pKi is not below 6, no (0) if it is.

# smiles-input, assayed-system, group-label
measured = [
    ("OC[C@H]1O[C@@H](n2cnc3c(NC4CCCC4)ncnc32)[C@H](O)[C@@H]1O", "Adenosine receptor A3 (Homo sapiens, UniProt P0DMS8)", "no (0)"),
    ("CCOC(=O)Nc1nc(-c2ccccc2)c(C(=O)c2ccc(OC)cc2)s1", "Adenosine receptor A3 (Homo sapiens, UniProt P0DMS8)", "yes (1)"),
    ("O=C(Nc1nc(-c2ccccc2)c(C(=O)c2ccccc2)s1)c1ccccc1", "Adenosine receptor A3 (Homo sapiens, UniProt P0DMS8)", "yes (1)"),
    ("Cc1ccc(C(=O)Nc2nc(-c3ccccc3)c(C(=O)c3ccc(Cl)cc3)s2)cc1", "Adenosine receptor A3 (Homo sapiens, UniProt P0DMS8)", "no (0)"),
    ("Cc1ccc(C(=O)c2sc(NC(=O)c3ccccc3)nc2-c2ccccc2)cc1", "Adenosine receptor A3 (Homo sapiens, UniProt P0DMS8)", "no (0)"),
    ("CNc1nc(-c2ccccc2)c(C(=O)c2ccccc2)s1", "Adenosine receptor A3 (Homo sapiens, UniProt P0DMS8)", "no (0)"),
    ("O=C(Nc1nc(-c2ccccc2)c(C(=O)c2ccc(Cl)cc2)s1)c1ccco1", "Adenosine receptor A3 (Homo sapiens, UniProt P0DMS8)", "yes (1)"),
    ("O=C(c1ccccc1)c1sc(Nc2ccccc2)nc1-c1ccccc1", "Adenosine receptor A3 (Homo sapiens, UniProt P0DMS8)", "no (0)"),
    ("CCOC(=O)Nc1nc(-c2ccccc2)c(C(=O)c2ccccc2)s1", "Adenosine receptor A3 (Homo sapiens, UniProt P0DMS8)", "yes (1)"),
    ("CS(=O)(=O)c1ccc(C(=O)c2sc(Nc3ccccc3)nc2-c2ccccc2)cc1", "Adenosine receptor A3 (Homo sapiens, UniProt P0DMS8)", "no (0)"),
    ("CCOC(=O)Nc1nc(-c2ccccc2)c(C(=O)c2ccc(Cl)cc2)s1", "Adenosine receptor A3 (Homo sapiens, UniProt P0DMS8)", "yes (1)"),
    ("Cc1ccc(C(=O)Nc2nc(-c3ccccc3)c(C(=O)c3ccccc3)s2)cc1", "Adenosine receptor A3 (Homo sapiens, UniProt P0DMS8)", "no (0)"),
]

Values compiled from ChEMBL document CHEMBL1157642.
